Biological target: Tartrate-resistant acid phosphatase type 5 (Sus scrofa)
Sequence (P09889 whole entry): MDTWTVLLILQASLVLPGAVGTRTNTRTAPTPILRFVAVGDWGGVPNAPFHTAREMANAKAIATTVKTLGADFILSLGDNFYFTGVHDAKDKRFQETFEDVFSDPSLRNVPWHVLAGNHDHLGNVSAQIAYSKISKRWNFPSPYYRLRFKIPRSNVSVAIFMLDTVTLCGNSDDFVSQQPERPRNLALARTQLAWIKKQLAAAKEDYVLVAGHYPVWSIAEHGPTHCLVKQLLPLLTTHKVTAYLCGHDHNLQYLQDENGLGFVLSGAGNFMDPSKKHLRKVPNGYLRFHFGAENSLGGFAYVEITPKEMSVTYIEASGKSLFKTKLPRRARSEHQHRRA
Test: Competitive inhibition of pig purple acid phosphatase Fe(3)Fe(2) state assessed as enzyme-inhibitor complex using pNPP as substrate by UV/Vis spectrophotometric method
readout name: Ki (µM)

item smiles: O=C(O)c1csc(-c2ccccc2Cl)n1
readout name: Ki
unit of measure: µM
experimental result: 630

item smiles: O=C(O)c1csc(-c2cccc3ccccc23)n1
readout name: Ki
unit of measure: µM
experimental result: 33

item smiles: COc1ccc(-c2nc(C(=O)O)cs2)cc1
readout name: Ki
unit of measure: µM
experimental result: 120

item smiles: O=C(O)c1csc(-c2ccc(Cl)cc2)n1
readout name: Ki
unit of measure: µM
experimental result: 49

item smiles: Cc1ccc(-c2nc(C(=O)O)cs2)cc1
readout name: Ki
unit of measure: µM
experimental result: 42

item smiles: O=C(O)c1csc(-c2ccccc2)n1
readout name: Ki
unit of measure: µM
experimental result: 190
